Examples of compounds with documented Bliss excess follow.
system: G-401 (Other Solid Carcinomas); assay: Bliss excess, mean over the matrix (fraction); higher = more synergy;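 further: after 72 h of two-drug dosing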

| Compound | Bliss excess |
| --- | --- |
| CN(C)CCCOc1ccc(-c2ccc3ncc4c(c3c2)n(C2CCOCC2)c(=O)n4C)cn1 [AZD0156] + O=C(c1cc(Cc2n[nH]c(=O)c3ccccc23)ccc1F)N1CCN(C(=O)C2CC2)CC1 [Olaparib] (first compound max 3 µM, partner max 3 µM) | 0.0269 |
| COc1cccc(OCCCN)c1-c1cc(Nc2cnc(C#N)cn2)n[nH]1 [Prexasertib] + CCc1c2c(nc3ccc(O)cc13)-c1cc3c(c(=O)n1C2)COC(=O)[C@]3(O)CC [SN-38] (first compound max 1 µM, 7x7, partner max 0.3 µM) | -0.0398 |
| Cc1c2c(nn1C)CSCc1cc(n(C)n1)CSc1cc(c3ccccc3c1)OCCCc1c(C(=O)O)n(C)c3c-2c(Cl)ccc13 [AZD5991] + C1CN(CCC1(C(=O)N[C@@H](CCO)C2=CC=C(C=C2)Cl)N)C3=NC=NC4=C3C=CN4 [Capivasertib] (first compound max 1 µM, 7x7, partner max 3 µM) | 0.0486 |
| Cc1nc(Nc2ncc(C(=O)Nc3c(C)cccc3Cl)s2)cc(N2CCN(CCO)CC2)n1 [Dasatinib] + CC(=O)Nc1cccc(-n2c(=O)n(C3CC3)c(=O)c3c(Nc4ccc(I)cc4F)n(C)c(=O)c(C)c32)c1 [Trametinib] (first compound max 2 µM, 7x7, partner max 1 µM) | -0.0089 |
| Cn1cnc2c(F)c(Nc3ccc(Br)cc3Cl)c(C(=O)NOCCO)cc21 [Selumetinib] + C[C@@H]1COCCN1C2=NC(=NC(=C2)C3(CC3)[S@](=N)(=O)C)C4=C5C=CNC5=NC=C4 [AZD6738] (first compound max 10 µM, 7x7, partner max 10 µM) | 0.0257 |
| CN(C)CCCOc1ccc(-c2ccc3ncc4c(c3c2)n(C2CCOCC2)c(=O)n4C)cn1 [AZD0156] + C[C@@H]1COCCN1C2=NC(=NC(=C2)C3(CC3)[S@](=N)(=O)C)C4=C5C=CNC5=NC=C4 [AZD6738] (first compound max 1 µM, 7x7, partner max 10 µM) | -0.0017 |
| NC1(C(=O)N[C@@H](CCO)c2ccc(Cl)cc2)CCN(c2ncnc3[nH]ccc23)CC1 [Capivasertib] + CC(=O)c1c(C)c2cnc(Nc3ccc(N4CCNCC4)cn3)nc2n(C2CCCC2)c1=O [Palbociclib] (first compound max 10 µM, 7x7, partner max 10 µM) | -0.009 |
| COc1cccc(OCCCN)c1-c1cc(Nc2cnc(C#N)cn2)n[nH]1 [Prexasertib] + Cc1cc2ncnn2cc1Nc1ncc2c(n1)n(C1CCOCC1)c(=O)n2C [AZD7648] (first compound max 1 µM, 7x7, partner max 10 µM) | -0.0221 |
| C[C@@H](c1ccc2nccn2c1)n1nnc2ncc(-c3cnn(C)c3)nc21 [Savolitinib] + CN(CC[C@H](CSC1=CC=CC=C1)NC2=C(C=C(C=C2)S(=O)(=O)NC(=O)C3=CC=C(C=C3)N4CCC(CC4)[C@H](C5=CC=CC=C5C6=CC=C(C=C6)Cl)O)S(=O)(=O)C(F)(F)F)CCO [AZD4320] (first compound max 1 µM, 7x7, partner max 1 µM) | -0.0486 |
| COc1cc2c(cc1OCCCCCOc1cc3c(cc1OC)C(=O)N1C=C(C)C[C@H]1C=N3)N=C[C@@H]1CC(C)=CN1C2=O [SG3199] + O=C(c1cc(Cc2n[nH]c(=O)c3ccccc23)ccc1F)N1CCN(C(=O)C2CC2)CC1 [Olaparib] (first compound max 0.001 µM, 7x7, partner max 10 µM) | -0.0211 |
| CN(CCO)CC[C@H](CSc1ccccc1)Nc1ccc(S(=O)(=O)NC(=O)c2ccc(N3CCC([C@@H](O)c4ccccc4-c4ccc(Cl)cc4)CC3)cc2)cc1S(=O)(=O)C(F)(F)F [AZD4320] + C=CCn1c(=O)c2cnc(Nc3ccc(N4CCN(C)CC4)cc3)nc2n1-c1cccc(C(C)(C)O)n1 [AZD1775] (first compound max 1 µM, partner max 1 µM) | -0.0058 |
| CC1(C)CCC(CN2CCN(c3ccc(C(=O)NS(=O)(=O)c4ccc(NCC5CCOCC5)c([N+](=O)[O-])c4)c(Oc4cnc5[nH]ccc5c4)c3)CC2)=C(c2ccc(Cl)cc2)C1 [Venetoclax] + Cc1cc2ncnn2cc1Nc1ncc2c(n1)n(C1CCOCC1)c(=O)n2C [AZD7648] (first compound max 1 µM, 7x7, partner max 10 µM) | -0.061 |
| COc1nnc2ccc(N3CCC(c4ccc(OCCN5CCN(C)C(=O)[C@H]5C)cc4)CC3)nn12 [AZD5153] + Cc1c2c(nn1C)CSCc1cc(n(C)n1)CSc1cc(c3ccccc3c1)OCCCc1c(C(=O)O)n(C)c3c-2c(Cl)ccc13 [AZD5991] (first compound max 1 µM, 7x7, partner max 1 µM) | 0.0312 |
